The measurements presented in this section are drawn from PubChem BioAssay.

Please go through the items and note down their z-score.
Target: NADPH oxidase 5 (Homo sapiens) (UniProt Q96PH1)
Sequence (Q96PH1 whole entry, looked up): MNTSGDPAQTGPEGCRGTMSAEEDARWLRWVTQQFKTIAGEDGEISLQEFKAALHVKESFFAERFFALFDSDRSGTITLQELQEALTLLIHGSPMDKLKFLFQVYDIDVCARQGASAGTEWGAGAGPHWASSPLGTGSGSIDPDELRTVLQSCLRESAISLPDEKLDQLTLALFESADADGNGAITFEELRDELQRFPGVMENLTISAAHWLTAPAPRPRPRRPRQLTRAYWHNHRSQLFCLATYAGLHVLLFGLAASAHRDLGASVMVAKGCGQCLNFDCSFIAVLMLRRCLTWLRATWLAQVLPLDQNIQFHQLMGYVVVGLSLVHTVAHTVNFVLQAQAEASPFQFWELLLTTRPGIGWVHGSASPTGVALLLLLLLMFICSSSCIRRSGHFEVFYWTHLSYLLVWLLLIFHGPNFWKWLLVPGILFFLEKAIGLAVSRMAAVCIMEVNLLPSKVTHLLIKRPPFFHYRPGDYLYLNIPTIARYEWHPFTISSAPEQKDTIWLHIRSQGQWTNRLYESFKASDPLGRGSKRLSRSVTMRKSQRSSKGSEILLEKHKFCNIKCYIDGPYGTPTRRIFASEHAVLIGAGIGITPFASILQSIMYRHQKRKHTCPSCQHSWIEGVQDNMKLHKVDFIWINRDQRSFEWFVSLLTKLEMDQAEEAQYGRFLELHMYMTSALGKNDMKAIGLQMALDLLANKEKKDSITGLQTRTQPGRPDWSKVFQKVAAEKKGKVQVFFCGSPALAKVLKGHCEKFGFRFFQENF
Assay: NOX5-dependent H2O2 signal modulators, primary screen, NOX inhibitor project, cell-based, HEK293-NOX5, Amplex Red fluorescence (AID 1161)
Conditions: HEK293-NOX5, ionomycin, 45 min, higher = more signal
Give bare numbers.

// solved cases for z-score follow
COc1ccc([Si](C)(C)[C@H]2[C@H](CCn3cc([C@H](O)c4ccccc4)nn3)O[C@@]3(C(=O)N(Cc4ccc(N5C(=O)c6cccc7cccc5c67)cc4)c4ccccc43)[C@@H]2C)cc1: 2.01
CCCC[C@@H]1C[C@H]1[C@@H](NC(=O)c1ccccc1)c1ccc(C(F)(F)F)cc1: 0.689

For the next question, use this compound.
Notebook: CC(C)C(=C=CC[C@H](O)c1ccc(OCCO)cc1)C[C@H](O)c1ccccn1 , z-score read as -1.03
